System: UACC-62
assay text: NCI tumour cell line growth inhibition, 48 h
Activity calls are given as the source filed them. Rule as the data show it: active = GI50 up to about 1.1 µM and inactive = higher.
measured quantity: GI50

>>> result("COc1ccc(C2OC[C@H]3O[C@@H](OCc4ccccc4)[C@H](O)[C@@H](O)[C@@H]3O2)cc1 (some centres not stated)")
"> 100 µM (inactive)"
>>> result("C=C1C(=O)OC2/C=C(\\C)C(O)CC(O)C(C)(O)CC(OC(=O)/C(C)=C/C)C12 (configuration not stated)")
"33.7 µM (inactive)"
>>> result("O=C(OCc1c(-c2ccccc2)nn(-c2ccccc2)c1COC(=O)Oc1ccccc1)Oc1ccccc1")
"> 100 µM (inactive)"
>>> result("C=C1CCc2ccccc2C1=O")
"> 100 µM (inactive)"
>>> result("COc1nc2ccc(COc3ccc(C(=O)NC(CCC(=O)O)C(=O)O)cc3)cc2nc1OC (configuration not stated)")
"> 10 µM (inactive)"
>>> result("CC1=C/C(=N\\NC(N)=S)C(C(O)(C(F)(F)F)C(F)(F)F)C(C)(C)C1 (configuration not stated)")
"> 10 µM (inactive)"
>>> result("C/C(=C\\CO)CC[C@@H]1[C@@]2(C)CCCC(C)(C)[C@@H]2CC[C@@]1(C)O")
"14.1 µM (inactive)"
>>> result("Cc1ccc(NC(=O)c2cc(S(=O)(=O)N3CCNNC3=O)c(S)cc2Cl)cc1")
"> 100 µM (inactive)"
>>> result("Nc1nc(Cl)cc(NCC2(O)CC(CO)C2)n1 (configuration not stated)")
"> 100 µM (inactive)"
>>> result("C#CCOC(=O)C(N)CSSCC(N)C(=O)O (configuration not stated)")
"> 100 µM (inactive)"
>>> result("CC(=O)Nc1cccc(/N=N/N(C)C)c1")
"> 100 µM (inactive)"
>>> result("OCC(O)COc1ccc(F)cc1 (configuration not stated)")
"> 100 µM (inactive)"
>>> result("CCn1c(SCc2nnc(Nc3ccccc3)s2)nc2ccccc2c1=O")
"3.3 µM (inactive)"
>>> result("Nc1ncnc2c1ncn2C1OC(C(=O)OCCO)C(O)C1O (configuration not stated)")
"> 100 µM (inactive)"
>>> result("CCOC(=O)c1c(N/C(S)=N/c2ccccc2)sc2c1CCOC2")
"28.9 µM (inactive)"
>>> result("Nc1cc(Cl)ccc1SSc1ccc(Cl)cc1N")
"2.88 µM (inactive)"
>>> result("COc1ccc(-c2cc(O)c3cc4c(cc3n2)OCO4)c(OC)c1OC")
"47.6 µM (inactive)"
>>> result("Cc1ccc(SC(=O)N2C(=S)N=C(NC3CCCCC3)C23CCCCC3)cc1")
"> 100 µM (inactive)"
>>> result("COC(=O)C1CC2CC(=NNC(N)=O)CC2C1 (configuration not stated)")
"> 100 µM (inactive)"
>>> result("C(/C=N/c1ccccc1)=C(/Nc1ccccc1)c1ccc2ccccc2c1")
"0.548 µM (active)"
>>> result("CCC(C(=O)C(=O)C(CC)P1(=O)OC(C)(C)CN1C(C)(C)C)P1(=O)OC(C)(C)CN1C(C)(C)C (configuration not stated)")
"> 100 µM (inactive)"
>>> result("O=C(Nc1ccccc1C(=O)O)C(=O)C(C(=O)c1ccccc1-c1ccccc1)C1OC(=O)c2ccccc21 (configuration not stated)")
"16.6 µM (inactive)"
